Assay: Apparent permeability across apical to basolateral side in MDCK-MDR1 cells measured over 60 mins
Format: ADME, cell-based, Canis lupus familiaris
Conditions: dog
Give Papp A→B at 1 h for every item shown.
Answers are plain numbers, in ×10⁻⁶ cm/s.

{"Compound": "O=C(O)[C@H]1CCCC[C@H]1C(=O)N1CCc2c(OCCO)cccc2[C@H]1CN1C(=O)c2ccccc2C1=O", "Unit tag": "×10⁻⁶ cm/s", "Recorded result": 0.9}

Here's the next entry for you.
Ask | Form field: reported Papp A→B at 1 h of O=C(OCc1ccccc1)[C@H]1CCCC[C@H]1C(=O)N1CCc2c(OS(=O)(=O)C(F)(F)F)cccc2C1CN1C(=O)c2ccccc2C1=O (some centres not stated)
Reply | 4.6
